biological target: FITC-BIM BH3 (FITC at the N-terminus); test: fluorescence polarisation
The reader will find reported EC90 values listed item by item below.
Quantity: EC90 (nM)

>>> readout_number("BCL-2ΔLΔC F104L (domain or fragment, human) MAHAGRTGYDNREIVMKYIHYKLSQRGYEWDAGDDVEENRTEAPEGTESEVVHLTLRQAGDDLSRRYRRDFAEMSSQLHLTPFTARGRFATVVEELFRDGVNWGRIVAFFEFGGVMCVESVNREMSPLVDNIALWMTEYLNRHLHTWIQDNGGWDAFVELYGPSMRA")
1.6
>>> readout_number("BCL-2ΔLΔC V156D (domain or fragment, human) MAHAGRTGYDNREIVMKYIHYKLSQRGYEWDAGDDVEENRTEAPEGTESEVVHLTLRQAGDDFSRRYRRDFAEMSSQLHLTPFTARGRFATVVEELFRDGVNWGRIVAFFEFGGDMCVESVNREMSPLVDNIALWMTEYLNRHLHTWIQDNGGWDAFVELYGPSMRA")
17
>>> readout_number("BCL-2ΔLΔC WT (domain or fragment, human) MAHAGRTGYDNREIVMKYIHYKLSQRGYEWDAGDDVEENRTEAPEGTESEVVHLTLRQAGDDFSRRYRRDFAEMSSQLHLTPFTARGRFATVVEELFRDGVNWGRIVAFFEFGGVMCVESVNREMSPLVDNIALWMTEYLNRHLHTWIQDNGGWDAFVELYGPSMRA")
8.6
>>> readout_number("BCL-2ΔLΔC R129L (domain or fragment, human) MAHAGRTGYDNREIVMKYIHYKLSQRGYEWDAGDDVEENRTEAPEGTESEVVHLTLRQAGDDFSRRYRRDFAEMSSQLHLTPFTARGLFATVVEELFRDGVNWGRIVAFFEFGGVMCVESVNREMSPLVDNIALWMTEYLNRHLHTWIQDNGGWDAFVELYGPSMRA")
8.7
>>> readout_number("BCL-2ΔLΔC D103Y (domain or fragment, human) MAHAGRTGYDNREIVMKYIHYKLSQRGYEWDAGDDVEENRTEAPEGTESEVVHLTLRQAGDYFSRRYRRDFAEMSSQLHLTPFTARGRFATVVEELFRDGVNWGRIVAFFEFGGVMCVESVNREMSPLVDNIALWMTEYLNRHLHTWIQDNGGWDAFVELYGPSMRA")
21
>>> readout_number("BCL-2ΔLΔC A113G (domain or fragment, human) MAHAGRTGYDNREIVMKYIHYKLSQRGYEWDAGDDVEENRTEAPEGTESEVVHLTLRQAGDDFSRRYRRDFGEMSSQLHLTPFTARGRFATVVEELFRDGVNWGRIVAFFEFGGVMCVESVNREMSPLVDNIALWMTEYLNRHLHTWIQDNGGWDAFVELYGPSMRA")
23
>>> readout_number("BCL-2ΔLΔC G101V (domain or fragment, human) MAHAGRTGYDNREIVMKYIHYKLSQRGYEWDAGDDVEENRTEAPEGTESEVVHLTLRQAVDDFSRRYRRDFAEMSSQLHLTPFTARGRFATVVEELFRDGVNWGRIVAFFEFGGVMCVESVNREMSPLVDNIALWMTEYLNRHLHTWIQDNGGWDAFVELYGPSMRA")
5.8
